System: Ruminococcus gnavus DSM 108212
protocol_description: fold change of Tryptamine concentration vs plate DMSO controls (fold change (ratio)); higher = more amine produced
protocol_conditions: 20 µM; incubation time: 27 h, anaerobic, 37 °C
Structures can show the parent of a compound that is named as a salt.
# fold change of Tryptamine concentration annotations
quantity: fold change of Tryptamine concentration

> print(dat)
                                   molecule  value
1  CO/N=C(\C(=O)N[C@@H]1C(=O)N2C(C(=O)[O-])=C(C[n+]3ccn4ncccc43)CS[C@H]12)c1nsc(N)n1 [Cefozopran hydrochloride]  0.135
2  CS(=O)(=O)c1ccc([C@@H](O)[C@@H](CO)NC(=O)C(Cl)Cl)cc1  0.267
3  CCN1CCN(C(=O)N[C@@H](C(=O)N[C@@H]2C(=O)N3C(C(=O)O)=C(CSc4nnnn4C)CS[C@H]23)c2ccc(O)cc2)C(=O)C1=O [Cefoperazone dihydrate]  0.124
4  COc1c(N2CCNC(C)C2)c(F)cc2c(=O)c(C(=O)O)cn(C3CC3)c12 (centres undefined)  0.434

====

System: Klebsiella aerogenes DSM 30053
protocol_description: growth (OD595) fold change vs plate DMSO controls (fold change (ratio)); higher = more growth
protocol_conditions: 5 µM; incubation time: 27 h, anaerobic, 37 °C
Measured growth of individual entries
quantity: growth

> print(dat)
                                   molecule  value
1  C[C@@H](O)[C@H]1C(=O)N2C(C(=O)O)=C(S[C@@H]3CN[C@H](C(=O)N(C)C)C3)[C@H](C)[C@H]12    1.4
2  COc1c(N2CCNC(C)C2)c(F)cc2c(=O)c(C(=O)O)cn(C3CC3)c12 (centres undefined)  0.348
3  CN1CCN(c2c(F)cc3c(=O)c(C(=O)O)cn4c3c2SCC4)CC1  0.425
4  CCn1cc(C(=O)O)c(=O)c2cc(F)c(N3CCNCC3)nc21  0.373

====

System: Clostridium sporogenes DSM 1664
protocol_description: growth (OD595) fold change vs plate DMSO controls (fold change (ratio)); higher = more growth
protocol_conditions: 0.6125 µM; incubation time: 27 h, anaerobic, 37 °C
Where a name gives a salt, the structure may show the parent alone.
Kindly return YES if reported growth is no lower than 1; return NO if it is lower.

compound	label_value
CC(C)(c1cc(Br)c(O)c(Br)c1)c1cc(Br)c(O)c(Br)c1 [TBBPA]	YES
CN1CCN(c2c(F)cc3c(=O)c(C(=O)O)cn4c3c2SCC4)CC1 [Rufloxacin]	YES
CCn1cc(C(=O)O)c(=O)c2cc3c(cc21)OCO3 [Oxolinic acid]	YES
COc1cccc(OC)c1C(=O)N[C@@H]1C(=O)N2[C@@H]1SC(C)(C)[C@@H]2C(=O)O [Methicillin sodium]	NO
CC[C@@]1([C@@H]2O[C@@H]([C@H]3O[C@@](O)(CO)[C@H](C)C[C@@H]3C)C[C@@H]2C)CC[C@H]([C@]2(C)CC[C@]3(C[C@H](O)[C@@H](C)[C@@H]([C@@H](C)[C@@H](OC)[C@H](C)C(=O)O)O3)O2)O1 [Monensin sodium salt]	NO
CO/N=C(\C(=O)N[C@@H]1C(=O)N2C(C(=O)O)=C(COC(N)=O)CS[C@H]12)c1ccco1 [Cefuroxime sodium salt]	NO
CCn1cc(C(=O)O)c(=O)c2cc(F)c(N3CCNCC3)nc21 [Enoxacin]	YES
CO[C@H]1C[C@H](O[C@H]2[C@H](C)[C@@H](O[C@@H]3O[C@H](C)C[C@H](N(C)C)[C@H]3OC(C)=O)[C@@H](C)C[C@@]3(CO3)C(=O)[C@H](C)[C@@H](OC(C)=O)[C@@H](C)[C@@H](C)OC(=O)[C@@H]2C)O[C@@H](C)[C@@H]1OC(C)=O [Troleandomycin]	YES
CC(=O)NC[C@H]1CN(c2ccc(N3CCOCC3)c(F)c2)C(=O)O1 [Linezolid]	YES
C=CC1=C(C(=O)O)N2C(=O)[C@@H](NC(=O)/C(=N\OCC(=O)O)c3csc(N)n3)[C@H]2SC1 [Cefixime]	YES
Cc1ncc([N+](=O)[O-])n1CCO [Metronidazole]	YES

====

Tested on: Escherichia coli IAI1
protocol_description: fold change of Putrescine concentration vs plate DMSO controls (fold change (ratio)); higher = more amine produced
protocol_conditions: 20 µM; incubation time: 27 h, anaerobic, 37 °C
Structures can show the parent of a compound that is named as a salt.
quantity: fold change of Putrescine concentration

> print(dat)
                                   compound  value
1  C=CC1=C(C(=O)O)N2C(=O)[C@@H](NC(=O)/C(=N\OCC(=O)O)c3csc(N)n3)[C@H]2SC1 [Cefixime]   1.16
2  CCn1cc(C(=O)O)c(=O)c2cc(F)c(N3CCNCC3)nc21 [Enoxacin]  0.993
3  C=CC1=C(C(=O)O)N2C(=O)[C@@H](NC(=O)/C(=N\O)c3csc(N)n3)[C@H]2SC1 [Cefdinir]  0.342
4  CCN1CCN(C(=O)N[C@@H](C(=O)N[C@@H]2C(=O)N3C(C(=O)O)=C(CSc4nnnn4C)CS[C@H]23)c2ccc(O)cc2)C(=O)C1=O [Cefoperazone dihydrate]   1.04
5  CO[C@@]12[C@H](COC(N)=O)C3=C(C(=O)C(C)=C(N)C3=O)N1C[C@@H]1N[C@@H]12 [Mitomycin C]  0.673
6  CO/N=C(\C(=O)N[C@@H]1C(=O)N2C(C(=O)[O-])=C(C[n+]3ccn4ncccc43)CS[C@H]12)c1nsc(N)n1 [Cefozopran hydrochloride]   2.17
7  CO/N=C(\C(=O)N[C@@H]1C(=O)N2C(C(=O)O)=C(COC(N)=O)CS[C@H]12)c1ccco1 [Cefuroxime sodium salt]   1.24

====

# fold change of Tryptamine concentration per record follows
System: Ruminococcus gnavus DSM 108212
protocol_description: fold change of Tryptamine concentration vs plate DMSO controls (fold change (ratio)); higher = more amine produced
protocol_conditions: 10 µM; incubation time: 27 h, anaerobic, 37 °C
Counter-ions that a name gives are not always drawn.
quantity: fold change of Tryptamine concentration

> print(dat)
                                   compound                                 quantity  value
1  CN1CCN(c2c(F)cc3c(=O)c(C(=O)O)cn4c3c2SCC4)CC1 [Rufloxacin]  fold change of Tryptamine concentration   1.24
2  CS(=O)(=O)c1ccc([C@@H](O)[C@@H](CO)NC(=O)C(Cl)Cl)cc1 [Thiamphenicol]  fold change of Tryptamine concentration  0.342
3  CO/N=C(\C(=O)N[C@@H]1C(=O)N2C(C(=O)[O-])=C(C[n+]3ccn4ncccc43)CS[C@H]12)c1nsc(N)n1 [Cefozopran hydrochloride]  fold change of Tryptamine concentration  0.148

====

Tested on: Clostridium sporogenes DSM 1664
protocol_description: fold change of Tryptamine concentration vs plate DMSO controls (fold change (ratio)); higher = more amine produced
protocol_conditions: 0.6125 µM; incubation time: 27 h, anaerobic, 37 °C
Structures can show the parent of a compound that is named as a salt.
// values below are reported fold change of Tryptamine concentration
quantity: fold change of Tryptamine concentration

compound	quantity	value
CC[C@@]1([C@@H]2O[C@@H]([C@H]3O[C@@](O)(CO)[C@H](C)C[C@@H]3C)C[C@@H]2C)CC[C@H]([C@]2(C)CC[C@]3(C[C@H](O)[C@@H](C)[C@@H]([C@@H](C)[C@@H](OC)[C@H](C)C(=O)O)O3)O2)O1 [Monensin sodium salt]	fold change of Tryptamine concentration	0.986
CN1CCN(c2c(F)cc3c(=O)c(C(=O)O)cn4c3c2SCC4)CC1 [Rufloxacin]	fold change of Tryptamine concentration	1
CCn1cc(C(=O)O)c(=O)c2cc(F)c(N3CCNCC3)nc21 [Enoxacin]	fold change of Tryptamine concentration	0.988
CO/N=C(\C(=O)N[C@@H]1C(=O)N2C(C(=O)O)=C(COC(N)=O)CS[C@H]12)c1ccco1 [Cefuroxime sodium salt]	fold change of Tryptamine concentration	1.01
CCn1cc(C(=O)O)c(=O)c2cc3c(cc21)OCO3 [Oxolinic acid]	fold change of Tryptamine concentration	0.975
C=CC1=C(C(=O)O)N2C(=O)[C@@H](NC(=O)/C(=N\OCC(=O)O)c3csc(N)n3)[C@H]2SC1 [Cefixime]	fold change of Tryptamine concentration	0.977
COc1cccc(OC)c1C(=O)N[C@@H]1C(=O)N2[C@@H]1SC(C)(C)[C@@H]2C(=O)O [Methicillin sodium]	fold change of Tryptamine concentration	1.02

// provenance: the supplement of paper PMC12494721
